- system-name: T1, TNFR1 (Homo sapiens, UniProt P19438)
- T1 chain: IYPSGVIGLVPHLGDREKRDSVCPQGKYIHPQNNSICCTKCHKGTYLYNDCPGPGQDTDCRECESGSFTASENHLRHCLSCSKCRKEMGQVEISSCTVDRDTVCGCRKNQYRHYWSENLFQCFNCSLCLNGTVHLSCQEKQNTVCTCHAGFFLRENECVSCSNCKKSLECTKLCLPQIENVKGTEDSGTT
- assay-explanation: yeast display SC50
observable: apparent Kd (screen) (nM)
Record the value in nM, omitting the unit from your answer.

binder: L12G (designed binder) MTLQELLREEAGRRAEAEAFRYALELLAEKFPEQKEYLLDLAEEIESQIRSLSGVDVEDVRKFLDKEWAWVKELLAEHPAELAEVEAARAARLAELRAEVEAKVAA
units-symbol: nM
recorded-result: 2.25
--
binder: E81P (designed binder) MTLQELLREEALRRAEAEAFRYALELLAEKFPEQKEYLLDLAEEIESQIRSLSGVDVEDVRKFLDKEWAWVKELLAEHPAPLAEVEAARAARLAELRAEVEAKVAA
units-symbol: nM
recorded-result: 0.718
--
binder: L6M (designed binder) MTLQEMLREEALRRAEAEAFRYALELLAEKFPEQKEYLLDLAEEIESQIRSLSGVDVEDVRKFLDKEWAWVKELLAEHPAELAEVEAARAARLAELRAEVEAKVAA
units-symbol: nM
recorded-result: 1.86

Please examine the following record next.
[ask] Fill in: apparent Kd (screen) of L74T (designed binder) MTLQELLREEALRRAEAEAFRYALELLAEKFPEQKEYLLDLAEEIESQIRSLSGVDVEDVRKFLDKEWAWVKETLAEHPAELAEVEAARAARLAELRAEVEAKVAA is ___
[reply] 2.48
